Numbers sourced from PubChem BioAssay AID1159580.

test: chemical genetic growth profiling, strain panel (AID 1159580);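 also: tested at 20 µM; growth read once vehicle control cultures reached saturation at 30 °C; lower values mean less growth of the strain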; conditions: S. cerevisiae deletion strains, growth OD, locus YLR384C, strain iki3
Out of some 5,500 compounds screened, about 2,000 (36%) were called active. About 18% were inconclusive and are not listed. Rule as the data show it: active = normalized growth mostly below about 0.91 (no sharp cut-off); inconclusive = no clear call, values can overlap the other calls; inactive = mostly above about 0.92. The list shows a part of the results. Where a SMILES comes first, the peptide text is derived from it. [ ]: non-standard residue; d: D form. Orn = NCCC[CH](N)C(=O)O
Entry note: the call must match one of active, inactive

Use these answered entries as a reference point.
[[record]]
compound = "CC(=O)Oc1cccc2c1C(=O)c1c(OC(C)=O)cc(C(=O)O)cc1C2=O"
group = "inactive"

[[record]]
compound = "CCCCc1nc(Cl)c(CO)n1Cc1ccc(-c2ccccc2-c2nn[nH]n2)cc1"
group = "inactive"

[[record]]
compound = "CC1=CC2C(C(C)C)CCC(C)(O)C2CC1 (configuration not stated)"
group = "inactive"

[[record]]
compound = "CC(C)CC1NC(=O)C(CCCN)NC(=O)C(C(C)C)NC(=O)C2CCCN2C(=O)C(Cc2ccccc2)NC(=O)C(CC(C)C)NC(=O)C(CCCN)NC(=O)C(C(C)C)NC(=O)C2CCCN2C(=O)C(Cc2ccccc2)NC1=O (configuration not stated) (cyclo(FPV[Orn]LFPV[Orn]L); configuration not given here)"
group = "inactive"

[[record]]
compound = "CN1CCN(CCCN2c3ccccc3Sc3ccc(C(F)(F)F)cc32)CC1"
group = "active"


Req: Record lookup: outcome of this test for CC(=O)OCC(=O)[C@@]12OC3(CCCC3)O[C@@H]1CC1C3CCC4=CC(=O)C=C[C@]4(C)[C@@]3(F)[C@@H](O)C[C@@]12C (some centres not stated) ?
Resp: inactive

Req: Could you do the same for Cc1cc(=O)n(-c2ccccc2)n1C , please?
Resp: inactive

Req: Could you do the same for COC(=O)C[C@H]1C(C)(C)[C@@H](O)[C@@H]2CC3=C4C=C(OC)O[C@@H](c5ccoc5)[C@]4(C)CCC3[C@@]1(C)C2=O (some centres not stated) , please?
Resp: inactive

Req: Could you do the same for CC[C@H]1CN2CCc3cc(OC)c(OC)cc3C2C[C@@H]1CC1NCCc2cc(OC)c(OC)cc21 (some centres not stated) , please?
Resp: inactive

Req: Could you do the same for NCCc1c[nH]c2ccccc12 , please?
Resp: inactive

Req: Could you do the same for OCc1c[nH]c2ccccc12 , please?
Resp: inactive

Req: Could you do the same for CC(=O)O[C@H]1CC[C@]2(C)C3CC(=O)[C@]4(C)C(C(C)=O)=CCC4C3CC[C@H]2C1 (some centres not stated) , please?
Resp: inactive

Req: Could you do the same for C1CCC(C(CC2CCCCN2)C2CCCCC2)CC1 (configuration not stated) , please?
Resp: inactive

Req: Could you do the same for NC(=O)N1c2ccccc2C=Cc2ccccc21 , please?
Resp: inactive

Req: Could you do the same for CC(=O)OC1CCC2(C)C3CC(=O)C4(C)C(CC5OC6(CCC(C)CO6)[C@@H](C)C54)C3CC[C@H]2C1 (some centres not stated) , please?
Resp: inactive

Req: Could you do the same for CC(=O)O[C@H]1CC[C@]2(C)C3CC[C@@]4(C)C(CC5O[C@@]6(CCC(C)CO6)[C@@H](C)C54)C3CC[C@@H]2C1 (some centres not stated) , please?
Resp: inactive

Req: Could you do the same for CC(=O)O[C@@H]1CC[C@]2(C)C3CC[C@]4(C)C(=O)CCC4C3CC[C@H]2C1 (some centres not stated) , please?
Resp: inactive
